- method_description: Selectivity index, ratio of IC50 for rat L6 cells to IC50 for Plasmodium falciparum K1
- Assay type: toxicity
- condition_info: L6 cells versus Plasmodium falciparum K1, read-out: Ratio IC50
So I've got a bunch of compounds here, and I need their selectivity ratio values.
One number for each entry.

These solved cases illustrate the format of a correct answer.
Can you share its selectivity ratio? I mean this compound: Brc1cccc2c1[nH]c1c[n+](Cc3cccc4ccccc34)ccc12 7

And CCCc1cccc(-[n+]2ccc3c(c2)[nH]c2ccc(Br)cc23)c1 ? 60

***
Can you share its selectivity ratio? I mean this compound: Brc1ccc2[nH]c3c[n+](Cc4cccc5ccccc45)ccc3c2c1 11
